These entries and their values trace back to the supplement of paper PMC10567573.

The entries below come with measured protein stability index values attached.
B1: ESR2 (parent)
chain: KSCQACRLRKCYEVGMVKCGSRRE

- Variants of: B1
- PROTOCOL_DESCRIPTION: protein stability index of a GFP-peptide fusion (GPS, HEK-293T) (PSI 1-6); higher = more stable;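 note: lentivirally expressed fusions sorted by FACS into six bins by GFP to DsRed ratio, PSI derived from sequencing read proportions per bin multiplied by bin number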
- COND: c terminus: a fixed tail appended
Form: value (number only, do not type unit).

For orientation, consider the following solved cases.
{"columns": ["MUTATION_ID", "protein stability index"],
 "data": [
  ["R7C", 2.5],
  ["R23M", 1.98],
  ["K10E", 2.12],
  ["R22V", 1.97],
  ["G20L", 1.73]
]}

Return reported protein stability index; argument: V17M
2.37

Return reported protein stability index; argument: S2G
1.96

Return reported protein stability index; argument: R9L
2.14

Return reported protein stability index; argument: C3Y
2.19

Return reported protein stability index; argument: C19Y
1.43

Return reported protein stability index; argument: Y12D
1.83
